- subject_of_test: KRAS G12D (Homo sapiens, UniProt P01116, G12D)
- Sequence (P01116 1-188 isoform P01116-2 G12D): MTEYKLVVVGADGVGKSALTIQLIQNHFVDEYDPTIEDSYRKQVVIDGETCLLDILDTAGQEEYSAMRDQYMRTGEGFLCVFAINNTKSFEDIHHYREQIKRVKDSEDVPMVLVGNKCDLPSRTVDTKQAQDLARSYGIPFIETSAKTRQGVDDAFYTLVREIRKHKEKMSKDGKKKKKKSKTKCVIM
- run_description: KRAS G12D Probe Displacement Assay (TR-FRET, GDP-loaded)
- Type: binding
- condition: KRAS G12D, read-out: KRAS^G12D Probe Displacement Assay IC50
pIC50: −log10 of the molar value.
Can you tell me pIC50 for the items I'm about to list?

Q. Under KRAS G12D (Homo sapiens, UniProt P01116, G12D): pIC50 value of Cc1cc(N)cc(-c2nc3c4c(nc(OCC5(CN6CCC6)CC5(F)F)nc4c2F)N2C[C@H]4CC[C@H](N4)[C@H]2CCO3)c1C(F)(F)F (some centres unmarked) [Example 19] ?
A. > 9.52

Q. # iterate: COC1CN(C)CC(C)(COc2nc3c4c(nc(-c5cc(N)cc(C)c5C(F)(F)F)c(F)c4n2)OCC[C@@H]2[C@@H]4CC[C@H](CN32)N4)C1 (some centres unmarked) [Example 126]
A. 8.52 to 9.52

Q. # iterate: CN1CCN(C)C(C)(COc2nc3c4c(nc(-c5cc(N)cc(Cl)c5C(F)(F)F)c(F)c4n2)OCC[C@@H]2[C@@H]4CC[C@H](CN32)N4)C1 (single isomer, unassigned)
A. > 9.52

Q. # iterate: Cc1cc(N)cc(-c2nc3c4c(nc(OCC5(CN6CCC6)CC5)nc4c2F)N2C[C@H]4CC[C@H](N4)[C@H]2CCO3)c1C(F)(F)F
A. 8.52 to 9.52

Q. # iterate: Cc1cc(N)cc(-c2nc3c4c(nc(OCC5(CN6C[C@@H](F)[C@@H](O)C6)CC5)nc4c2F)N2C[C@H]4CC[C@H](N4)[C@H]2CCO3)c1C(F)(F)F (stereo in doubt)
A. > 9.52

Provenance of the data: patent US20260347373A1
